- assay-system: full length cynomolgus monkey DLL4 (cynomolgus monkey)
- experiment-summary: FMAT, hybridoma supernatant, 293T cells with cynomolgus DLL4
observable: Count
Numbers only.

binder: 2H10 (antibody, IgG4, V domains shown) VH: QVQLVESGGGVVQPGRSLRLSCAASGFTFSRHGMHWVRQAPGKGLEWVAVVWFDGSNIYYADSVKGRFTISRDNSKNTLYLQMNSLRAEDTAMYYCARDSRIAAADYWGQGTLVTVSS VL: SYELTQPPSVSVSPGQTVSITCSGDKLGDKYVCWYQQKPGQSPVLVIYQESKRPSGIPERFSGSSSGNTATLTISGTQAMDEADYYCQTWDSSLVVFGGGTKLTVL
Count: 103

binder: 12A1 (antibody, IgG4, V domains shown) VH: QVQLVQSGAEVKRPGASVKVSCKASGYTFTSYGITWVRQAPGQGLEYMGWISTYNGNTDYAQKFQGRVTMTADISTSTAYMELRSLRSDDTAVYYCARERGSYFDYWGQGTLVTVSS VL: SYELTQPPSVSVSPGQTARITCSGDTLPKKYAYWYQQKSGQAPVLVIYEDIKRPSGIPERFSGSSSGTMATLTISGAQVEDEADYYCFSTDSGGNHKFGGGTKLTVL
Count: 106

binder: 20G8 (antibody, IgG4, V domains shown) VH: QVQLVQSGAEVKKPGASVKVSCKASGYTFTSYGISWVRQAPGQGLEWMGWISVYNGNTNYAQKLQGRVTMTTDTSTSTAYMEVRSLRSDDTAVYYCARDRVPRIPRTTEAFDIWGRGTMVTVCS VL: QSVLTQPPSASGTPGQRVTISCSGSSSNIGSYYVYWYQQLPGTAPKLLIYRDNQRPSGVPDRFSGSKSGTSASLAIRGLRSDDEADYYCAAWDDSLSGHWVFGGGTKLTVL
Count: 128

With those in mind, consider the next binder.
Incoming: Entry under review: 4B3 (antibody, IgG4, V domains shown) VH: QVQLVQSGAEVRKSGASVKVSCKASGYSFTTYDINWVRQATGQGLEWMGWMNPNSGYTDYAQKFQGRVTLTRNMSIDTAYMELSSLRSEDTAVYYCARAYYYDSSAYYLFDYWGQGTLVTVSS VL: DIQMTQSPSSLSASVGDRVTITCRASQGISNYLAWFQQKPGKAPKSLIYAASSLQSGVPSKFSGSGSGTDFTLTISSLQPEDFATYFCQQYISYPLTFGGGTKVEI . Reported Count?
Outgoing: 97

The reported numbers originate from patent US20100196385A1.
